IC50 reference
System: U87MG tumour cells
Experiment: Test of in vitro proliferation of U87MG tumour cells
Assay type: cell-based
Conditions: Homo sapiens, U-87 MG, 72 h, U87MG cells, 72 hours; read-out: U87 Cell Proliferation IC50
property.name: IC50 (nM)

- C[C@H]1COCCN1c1ccc(NC(=O)Nc2ccc(-c3nc(N4C5CCC4COC5)nc4c3C(=O)N(C)CC(C)(C)O4)cc2F)cn1: 126
- CCNC(=O)Nc1ccc(-c2nc(N3CCOC[C@@H]3C)nc3c2C(=O)N(CC)CC(C)(C)O3)cc1: 184
- CCN1CC(C)(C)Oc2nc(N3C4CCC3COC4)nc(-c3ccc(NC(=O)Nc4ccncn4)cc3)c2C1=O: 99
- CCN1CC(C)(C)Oc2nc(N3CC4CCC(C3)O4)nc(-c3ccc(NC(=O)Nc4ccc(N5CCN(C)CC5)cc4)c(F)c3)c2C1=O: 32
- CCN1CC(C)(C)Oc2nc(N3CC4CCC(C3)O4)nc(-c3ccc(NC(=O)Nc4ccc(N5CCN(C)CC5)nc4)c(F)c3)c2C1=O: 57
- CCN1CC(C)(C)Oc2nc(N3CC4CCC(C3)O4)nc(-c3ccc(NC(=O)Nc4cc(C)nc(C)c4)c(F)c3)c2C1=O: 71
- CCN1CC(C)(C)Oc2nc(N3CCOC[C@@H]3C)nc(-c3ccc(NC(=O)Nc4ccc(N5CC6CCC(C5)O6)nc4)c(F)c3)c2C1=O: 125

====

Tested on: U87MG tumour cells
Test: Test of in vitro proliferation of U87MG tumour cells
Type: cell-based
Conditions: Homo sapiens, U-87 MG, 72 h, U87MG cells, 72 hours; read-out: U87 Cell Proliferation IC50
Description: Model 4: Test of in vitro Proliferation of U87MG Tumour Cells. The cell growth is determined with the reagent CellTiter 96 AQueous One Solution Cell Proliferation Assay from Promega (Cat. No. G3581).
property.name: IC50

• CCN1CC(C)(C)Oc2nc(N3CCOC[C@@H]3C)nc(-c3ccc(NC(=O)Nc4cccc(OC(F)F)c4)cc3)c2C1=O [Example 204] = 0.074 µM
• CCN1CC(C)(C)Oc2nc(N3CC4CCC(C3)O4)nc(-c3ccc(NC(=O)Nc4ccccn4)c(F)c3)c2C1=O [Example 158] = 1.7 µM
• C[C@@H]1COCCN1c1ccc(NC(=O)Nc2ccc(-c3nc(N4CC5CCC(C4)O5)nc4c3C(=O)N(C)CC(C)(C)O4)cc2F)cn1 [Example 87] = 0.059 µM

====

Test system: U87MG tumour cells
Assay: Test of in vitro proliferation of U87MG tumour cells
Format: cell-based
Details: Homo sapiens, U-87 MG, 72 h, U87MG cells, 72 hours; read-out: U87 Cell Proliferation IC50
IC50 reference
property.name: IC50 (nM)

- CCNC(=O)Nc1ccc(-c2nc(N3CC4CCC(C3)O4)nc3c2C(=O)N(CCC(=O)OC(C)(C)C)CC(C)(C)O3)cc1: 2260
- CCN1CC(C)(C)Oc2nc(N3CC4CCC(C3)O4)nc(-c3ccc(NC(=O)Nc4ccnc(N(C)C)c4)c(F)c3)c2C1=O: 83
- CCN1CC(C)(C)Oc2nc(N3CC4CCC(C3)O4)nc(-c3ccc(NC(=O)OC)cc3)c2C1=O: 2690
- CCN1CC(C)(C)Oc2nc(N3CC4CCC(C3)O4)nc(-c3ccc(NC(=O)Nc4ccc(C(F)(F)F)nc4)c(F)c3)c2C1=O: 58
- CC[C@H]1COCCN1c1nc2c(c(-c3ccc(NC(=O)NC)c(F)c3)n1)C(=O)N(CC)CC(C)(C)O2: 229
- COCCN1CC(C)(C)Oc2nc(N3CC4CCC(C3)O4)nc(-c3ccc(NC(=O)Nc4ccon4)c(F)c3)c2C1=O: 1330
- CCN1CC(C)(C)Oc2nc(N3CC4CCC(C3)O4)nc(-c3ccc(NC(=O)Nc4ccnc(C)c4)c(F)c3)c2C1=O: 57
- CCN1CC(C)(C)Oc2nc(N3CC4CCC(C3)O4)nc(-c3ccc(NC(=O)Nc4ccc(N5CCOCC5)cn4)cc3)c2C1=O: 100
- CCN1CC(C)(C)Oc2nc(N3C4CCC3COC4)nc(-c3ccc(NC(=O)NC4CC4)c(F)c3)c2C1=O: 240
- CCN1CC(C)(C)Oc2nc(N3CCOC[C@@H]3C)nc(-c3ccc(NC(=O)Nc4ccc(N5CCOCC5)nc4)c(F)c3)c2C1=O: 67
- CCN1CC(C)(C)Oc2nc(N3CC4CCC(C3)O4)nc(-c3ccc(NC(=O)Nc4ccncc4)c(F)c3)c2C1=O: 29
- CCN1CC(C)(C)Oc2nc(N3CCOC[C@@H]3C)nc(-c3ccc(NC(=O)Nc4ccc(N5CCOCC5(C)C)nc4)c(F)c3)c2C1=O: 83
- CNC(=O)Nc1ccc(-c2nc(N3CC4CCC(C3)O4)nc3c2C(=O)N(CCOC)CC(C)(C)O3)cc1F: 625
- CCN1CC(C)(C)Oc2nc(N3CC4CCC(C3)O4)nc(-c3ccc(NC(=O)Nc4ccncc4)cc3F)c2C1=O: 209
- CCN1CC(C)(C)Oc2nc(N3CC4CCC(C3)O4)nc(-c3ccc(NC(=O)Nc4ccc(OC5CCOC5)cc4)c(F)c3)c2C1=O (stereo not drawn): 53
- CCNC(=O)Nc1ccc(-c2nc(N3CC4CCC(C3)O4)nc3c2C(=O)N(CC)CC(C)(C)O3)cc1: 239
- CCN1CC(C)(C)Oc2nc(N3CC4CCC(C3)O4)nc(-c3ccc(NC(=O)OCCO)c(F)c3)c2C1=O: 1680
- CCN1CC(C)(C)Oc2nc(N3CC4CCC(C3)O4)nc(-c3ccc(NC(=O)Nc4cccc(OC)n4)c(F)c3)c2C1=O: 3100
- CCN1CC(C)(C)Oc2nc(N3CCOC[C@@H]3C)nc(-c3ccc(NC(=O)Nc4cn(C)cn4)c(F)c3)c2C1=O: 2930
- COCCN1CC(C)(C)Oc2nc(N3CC4CCC(C3)O4)nc(-c3ccc(NC(=O)Nc4ccon4)cc3)c2C1=O: 198
- CCN1CC(C)(C)Oc2nc(N3CC4CCC(C3)O4)nc(-c3ccc(NC(=O)Nc4cn(C)cn4)c(F)c3)c2C1=O: 2130
- CCN1CC(C)(C)Oc2nc(N3CCOC[C@@H]3C)nc(-c3ccc(NC(=O)Nc4ccc(OC)cn4)c(F)c3)c2C1=O: 1020
- CCN1CC(C)(C)Oc2nc(N3CCOCC3)nc(-c3ccc(N)cc3)c2C1=O: 9830
- CCN1CC(C)(C)Oc2nc(N3CCOC[C@@H]3C)nc(-c3ccc(NC(=O)Nc4ccc(F)cc4F)cc3)c2C1=O: 105
- CCN1CC(C)(C)Oc2nc(N3CCOC[C@@H]3C)nc(-c3ccc(NC(=O)Nc4ccncc4)cc3F)c2C1=O: 121

====

PI3Ka IC50 reference
Target: PI3Kα (p110α/p85α) (Homo sapiens (Human))
Sequence (P42336 whole entry): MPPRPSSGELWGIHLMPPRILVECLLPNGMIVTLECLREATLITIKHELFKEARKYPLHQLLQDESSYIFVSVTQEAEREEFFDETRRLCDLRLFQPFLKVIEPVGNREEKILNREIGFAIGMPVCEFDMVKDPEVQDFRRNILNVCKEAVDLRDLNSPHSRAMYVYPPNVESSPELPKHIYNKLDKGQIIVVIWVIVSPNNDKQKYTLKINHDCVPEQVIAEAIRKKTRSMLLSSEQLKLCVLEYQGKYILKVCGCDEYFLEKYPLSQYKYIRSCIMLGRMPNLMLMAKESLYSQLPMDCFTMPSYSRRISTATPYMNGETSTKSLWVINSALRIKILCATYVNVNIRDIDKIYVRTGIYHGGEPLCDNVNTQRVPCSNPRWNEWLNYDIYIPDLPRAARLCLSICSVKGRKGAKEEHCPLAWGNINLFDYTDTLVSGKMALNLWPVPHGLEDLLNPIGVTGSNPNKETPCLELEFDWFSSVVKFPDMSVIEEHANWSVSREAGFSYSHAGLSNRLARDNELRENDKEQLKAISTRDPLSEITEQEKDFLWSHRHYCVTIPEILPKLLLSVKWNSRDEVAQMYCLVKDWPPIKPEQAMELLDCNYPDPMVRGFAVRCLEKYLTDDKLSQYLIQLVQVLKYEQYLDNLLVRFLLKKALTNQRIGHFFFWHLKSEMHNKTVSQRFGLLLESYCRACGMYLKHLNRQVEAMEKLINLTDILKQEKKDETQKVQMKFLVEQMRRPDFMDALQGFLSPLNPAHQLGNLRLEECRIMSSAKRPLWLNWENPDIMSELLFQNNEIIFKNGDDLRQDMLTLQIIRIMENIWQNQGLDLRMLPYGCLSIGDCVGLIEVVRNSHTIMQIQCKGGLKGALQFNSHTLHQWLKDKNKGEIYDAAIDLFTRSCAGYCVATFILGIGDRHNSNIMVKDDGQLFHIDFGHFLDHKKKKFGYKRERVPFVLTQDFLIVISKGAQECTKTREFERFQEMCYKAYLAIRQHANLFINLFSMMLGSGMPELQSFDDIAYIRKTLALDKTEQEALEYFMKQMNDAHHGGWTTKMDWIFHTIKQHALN
Sequence (P27986 whole entry partner): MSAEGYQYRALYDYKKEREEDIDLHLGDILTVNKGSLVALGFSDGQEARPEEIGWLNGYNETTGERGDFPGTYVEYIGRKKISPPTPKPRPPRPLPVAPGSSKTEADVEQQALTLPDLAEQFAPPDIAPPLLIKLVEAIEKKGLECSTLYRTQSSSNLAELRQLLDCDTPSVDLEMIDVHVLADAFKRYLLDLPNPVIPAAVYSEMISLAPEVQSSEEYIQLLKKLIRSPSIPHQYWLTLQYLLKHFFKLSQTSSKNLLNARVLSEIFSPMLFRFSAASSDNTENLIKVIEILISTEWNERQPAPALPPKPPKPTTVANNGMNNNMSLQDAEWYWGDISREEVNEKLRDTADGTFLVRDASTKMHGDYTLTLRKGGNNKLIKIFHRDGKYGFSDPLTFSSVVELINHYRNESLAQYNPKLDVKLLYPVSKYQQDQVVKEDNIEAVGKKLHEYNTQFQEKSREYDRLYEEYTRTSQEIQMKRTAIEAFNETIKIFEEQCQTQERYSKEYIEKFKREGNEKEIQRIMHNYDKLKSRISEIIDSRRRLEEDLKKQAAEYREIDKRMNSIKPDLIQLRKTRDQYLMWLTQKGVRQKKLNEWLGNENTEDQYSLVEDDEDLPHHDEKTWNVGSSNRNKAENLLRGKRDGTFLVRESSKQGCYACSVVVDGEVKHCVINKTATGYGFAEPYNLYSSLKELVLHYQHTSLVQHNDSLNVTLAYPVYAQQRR
Experiment: PI3Kα enzymatic test by measuring the consumption of ATP
Format: biochemical
property.name: PI3Ka IC50

• CC[C@H]1COCCN1c1ccc(NC(=O)Nc2ccc(-c3nc(N4CCOC[C@@H]4C)nc4c3C(=O)N(CC)CC(C)(C)O4)cc2F)cn1 = >10 µM
• Cc1ccc(NC(=O)Nc2ccc(-c3nc(N4C5CCC4COC5)nc4c3C(=O)N(C)CC(C)(C)O4)cc2)nc1 = >10 µM
• CCN1CC(C)(C)Oc2nc(N3CC4CCC(C3)O4)nc(-c3ccc(NC(=O)Nc4cccnc4)cc3)c2C1=O = 2.66 µM
• CCNC(=O)Nc1ccc(-c2nc(N3C4CCC3COC4)nc3c2C(=O)N(CC)CC(C)(C)O3)cc1F = >10 µM

====

log10 of IC50 reference
System: U87MG tumour cells
Assay: Test of in vitro proliferation of U87MG tumour cells
Format: cell-based
Details: Homo sapiens, U-87 MG, 72 h, U87MG cells, 72 hours; read-out: U87 Cell Proliferation IC50
property.name: log10 of IC50 (log10 of the value in nM)

• CCN1CC(C)(C)Oc2nc(N3CC4CCC(C3)O4)nc(-c3ccc(NC(=O)Nc4cc(C)nc(C)n4)c(F)c3)c2C1=O = 3.46
• CCN1CC(C)(C)Oc2nc(N3CC4CCC(C3)O4)nc(-c3ccc(NC(=O)Nc4ccc(N5CCN(C)CC5)cc4)cc3)c2C1=O = 1.34
• CCN1CC(C)(C)Oc2nc(N3CCOC[C@@H]3C)nc(-c3ccc(NC(=O)Nc4cc(OC)ccc4F)cc3)c2C1=O = 2.01
• CCN1CC(C)(C)Oc2nc(N3CCOC[C@@H]3C)nc(-c3ccc(NC(=O)Nc4ccc(N5C[C@@H]6C[C@H]5CO6)nc4)c(F)c3)c2C1=O = 2.45
• CN1CC(C)(C)Oc2nc(N3C4CCC3COC4)nc(-c3ccc(NC(=O)Nc4ccccn4)cc3)c2C1=O = 2.09
• CCN1CC(C)(C)Oc2nc(N3CCOC[C@@H]3C)nc(-c3ccc(NC(=O)Nc4ccc(N5CCN(C)CC5)nc4)cc3)c2C1=O = 2.10
• CCN1CC(C)(C)Oc2nc(N3C4CCC3COC4)nc(-c3ccc(NC(=O)Nc4cc(C)nc(C)n4)cc3)c2C1=O = 2.61
• COc1ccnc(NC(=O)Nc2ccc(-c3nc(N4C5CCC4COC5)nc4c3C(=O)N(C)CC(C)(C)O4)cc2)c1 = 2.46
• CCN1CC(C)(C)Oc2nc(N3CC4CCC(C3)O4)nc(-c3ccc(NC(=O)NCCF)cc3)c2C1=O = 2.34
• Cc1ccc(NC(=O)Nc2ccc(-c3nc(N4C5CCC4COC5)nc4c3C(=O)N(C)CC(C)(C)O4)cc2)nc1 = 2.27
• CCN1CC(C)(C)Oc2nc(N3CCOC[C@@H]3C)nc(-c3ccc(NC(=O)Nc4ccc(C(=O)N5CCC(N(C)C)CC5)cc4)cc3)c2C1=O = 1.48
• CCN1CC(C)(C)Oc2nc(N3CC4CCC(C3)O4)nc(-c3ccc(NC(=O)Nc4ccn(C)n4)cc3)c2C1=O = 2.53
• CCNC(=O)Nc1ccc(-c2nc(N3CC4CCC(C3)O4)nc3c2C(=O)N(CCC(=O)N(C)C)CC(C)(C)O3)cc1 = 3.58
• CCN1CC(C)(C)Oc2nc(N3CCOC[C@@H]3C)nc(-c3ccc(NC(=O)Nc4ccc(OC)cn4)cc3)c2C1=O = 2.38
• CCN1CC(C)(C)Oc2nc(N3CC4CCC(C3)O4)nc(-c3ccc(NC(=O)Nc4ccc(N5CCOCC5)nc4)c(F)c3)c2C1=O = 2.03
• Cc1ccc(NC(=O)Nc2ccc(-c3nc(N4CC5CCC(C4)O5)nc4c3C(=O)N(C)CC(C)(C)O4)cc2)nc1 = 2.54
• CCNC(=O)Nc1ccc(-c2nc(N3C4CCC3COC4)nc3c2C(=O)N(CC)CC(C)(C)O3)cc1F = 2.32
• CCN1CC(C)(C)Oc2nc(N3CC4CCC(C3)O4)nc(-c3ccc(NC(=O)NC)c(F)c3)c2C1=O = 2.29
• CCN1CC(C)(C)Oc2nc(N3CC4CCC(C3)O4)nc(-c3ccc(Nc4nnc(C)[nH]4)c(F)c3)c2C1=O = 3.43
• CCN1CC(C)(C)Oc2nc(N3CC4CCC(C3)O4)nc(-c3ccc(NC(=O)N[C@H](C)CO)c(F)c3)c2C1=O = 3.96
• CCNC(=O)Nc1ccc(-c2nc(N3CC4CCC(C3)O4)nc3c2C(=O)N(CCCO)CC(C)(C)O3)cc1 = 3.40
• CCN1CC(C)(C)Oc2nc(N3CC4CCC(C3)O4)nc(-c3ccc(NC(=O)Nc4cc(OC)ccn4)cc3)c2C1=O = 2.53

Cited source: patent US9120812B2
